target: TPI (triosephosphate isomerase), recombinant; test: isothermal titration calorimetry; conditions: 100 μM TPI, 1 mM palmitic amide; DMSO control
measuredParameter: pKd
# pKd: negative log10 of molar concentration; output just the value

Note pKd for the molecule shown: CCCCCCCCCCCCCCCC(N)=O [palmitic amide] 5.31
